- protocol-details: solvent given as SMILES
- cond: in O
Given measured absorption maximum, output t if it is greater than or equal to 400 nm and f if not.

>  <molecule>
COCCOCCOCCNc1cc2c3c(c(NCCOCCOCCOC)cc4c3c1C(=O)N(CCOCCOCCOC)C4=O)C(=O)N(CCOCCOCCOC)C2=O

>  <label-class>
t

$$$$
>  <molecule>
CCCCC(CC)CO[N+](=O)[O-] (configuration not stated)

>  <label-class>
f

$$$$
>  <molecule>
CN(C)c1cc(C#N)c(N(C)C)c(C#N)c1

>  <label-class>
f

$$$$
>  <molecule>
CCOC(=O)c1ccccc1-c1c2ccc(=[N+](CC)CC)cc-2oc2c1oc1cc(N)ccc12

>  <label-class>
t

$$$$
>  <molecule>
Cc1cccc2cc(-c3cc4cccc(C)c4oc3=O)oc12

>  <label-class>
f

$$$$
>  <molecule>
Nc1ccc2c(-c3ccccc3C(=O)[O-])c3ccc(=[NH2+])cc-3oc2c1

>  <label-class>
t

$$$$
>  <molecule>
COCCOc1ccc(OCCOC)c(C=O)c1

>  <label-class>
f

$$$$
>  <molecule>
CCn1c(-c2ccc(-c3ccc(-c4ccc(-c5n(CC)c6ccccc6[n+]5CC)cc4)cc3)cc2)[n+](CC)c2ccccc21

>  <label-class>
f

$$$$
>  <molecule>
COc1ccc(C(=O)/C=C2\C(=O)Nc3ccccc32)c(OC)c1

>  <label-class>
f

$$$$
>  <molecule>
COc1cccc2cc(-c3cc4cccc(OC)c4oc3=O)oc12

>  <label-class>
f

$$$$
>  <molecule>
O=C([O-])c1cc(N2C(=O)C=CC2=O)ccc1-c1c2cc(F)c(=O)cc-2oc2cc([O-])c(F)cc12

>  <label-class>
t

$$$$
>  <molecule>
CC(=O)c1ccc2ccc3c(NCCC(=O)NCCCCCCc4nc5c(=O)[nH]c(N)nc5n4[C@H]4C[C@H](O)[C@@H](CO)O4)ccc4ccc1c2c43

>  <label-class>
t

$$$$
>  <molecule>
CCCN1/C(=C/C=C(/C=C/C2=[N+](CCC)c3ccccc3C2(C)C)c2cc[n+](C)cc2)C(C)(C)c2ccccc21

>  <label-class>
t

$$$$
>  <molecule>
Cc1ccc(C2CC(c3ccc(O)cc3)=NN2c2ccc(S(N)(=O)=O)cc2)cc1 (configuration not stated)

>  <label-class>
f

$$$$
>  <molecule>
Oc1ccc(-c2cccs2)cc1-c1nc2ccccc2s1

>  <label-class>
f

$$$$
>  <molecule>
CCOC(=O)CC[N+]1=c2cc3c(cc2CCC1)=Cc1c(c2ccc(N(C)C)cc2oc1=O)O3

>  <label-class>
t

$$$$
>  <molecule>
COc1ccc2c(c1)[n+]([O-])nc(N)[n+]2[O-]

>  <label-class>
t

$$$$
>  <molecule>
CC[N+](CC)=c1ccc2nc3c(cc(NCCC(=O)NC(C)C(=O)OC)c4ccccc43)oc-2c1 (configuration not stated)

>  <label-class>
t

$$$$
>  <molecule>
Cc1cc(N(C)C)ccc1C1=C2C=CC(=[N+](C)C)C=C2[Si](C)(C)c2cc(N(C)C)ccc21

>  <label-class>
t

$$$$
>  <molecule>
Cc1ccc(C)c(C2=C3C=CC(=[N+](C)C)C=C3[Si](C)(C)c3cc(N(C)C)ccc32)c1

>  <label-class>
t

$$$$
>  <molecule>
CC/[NH+]=c1\cc2oc3cc(NCCN)c4ccccc4c3nc-2cc1C

>  <label-class>
t

$$$$
>  <molecule>
O=c1oc2ccc(Cl)cc2cc1-c1cc2cc(Cl)ccc2o1

>  <label-class>
f

$$$$
>  <molecule>
O=c1[nH]c(=O)c2scc([C@H]3C[C@H](O)[C@@H](CO)O3)c2[nH]1

>  <label-class>
f

$$$$
>  <molecule>
CC/[NH+]=c1\cc2oc3cc(NCCC(=O)NCCCCC(NC(C)=O)C(=O)OC)c4ccccc4c3nc-2cc1C (configuration not stated)

>  <label-class>
t

$$$$
>  <molecule>
O=c1ccc2cc3ccoc3cc2o1

>  <label-class>
f

$$$$
>  <molecule>
O=C([O-])c1ccccc1C1=c2cc3c4c(c2Oc2c1cc1c5c2CCCN5CCC1)CCC[N+]=4CCC3

>  <label-class>
t

$$$$
>  <molecule>
CC/[NH+]=c1\cc2oc3cc(NCCC(=O)NC(C(=O)OC)c4ccccc4)c4ccccc4c3nc-2cc1C (configuration not stated)

>  <label-class>
t

$$$$
>  <molecule>
c1ccc(-c2nc(-c3ccc(N(c4ccccc4)c4ccccc4)cc3)n3ccccc23)cc1

>  <label-class>
f

$$$$
>  <molecule>
CC(=O)Nc1ccc2c(c1)c(=O)c1cc(NC(C)=O)ccc1n2CCCCCC(=O)O

>  <label-class>
t

$$$$
>  <molecule>
C[n+]1ccnc(/C=C/c2ccc(N(c3ccccc3)c3ccc(/C=C/c4c[n+](C)ccn4)cc3)cc2)c1

>  <label-class>
t

$$$$
>  <molecule>
COc1cc2cc(-c3ccc(C(=O)OCOC(C)=O)cc3C(=O)OCOC(C)=O)oc2cc1N1CCOCCOCCN(c2cc3oc(-c4ccc(C(=O)OCOC(C)=O)cc4C(=O)OCOC(C)=O)cc3cc2OC)CCOCCOCC1

>  <label-class>
f

$$$$
>  <molecule>
N#Cc1ccc(N)cc1

>  <label-class>
f

$$$$
>  <molecule>
CN(C)c1ccc(/C=C/c2cc[n+](CCC[n+]3ccc(/C=C/c4ccc(N(C)C)cc4)cc3)cc2)cc1

>  <label-class>
t

$$$$
>  <molecule>
Nc1ccc2c(-c3ccc(C(=O)CN4C(=O)CCC4=O)cc3C(=O)[O-])c3ccc(=[NH2+])c(S(=O)(=O)[O-])c-3oc2c1S(=O)(=O)[O-]

>  <label-class>
t

$$$$

---

- protocol-details: solvent given as SMILES
- cond: in CCOCC

>  <molecule>
Cc1cc(C2(c3cc(C)c(O)c(Br)c3)OS(=O)(=O)c3ccccc32)cc(Br)c1O

>  <absorption maximum [nm]>
395

$$$$
>  <molecule>
COC(=O)C(Cc1ccc2oc(-c3ccc(-n4c5ccccc5c5ccccc54)cc3)nc2c1)NC(=O)OC(C)(C)C (stereo unspecified)

>  <absorption maximum [nm]>
339.6

$$$$
>  <molecule>
Cc1ccc(N(c2ccc(C)cc2)c2ccc(-c3ccc4c(c3)C(=O)c3ccccc3C4=O)cc2)cc1

>  <absorption maximum [nm]>
459

$$$$
>  <molecule>
OB(O)c1ccc(-c2ccc(N(c3ccccc3)c3ccccc3)cc2)cc1

>  <absorption maximum [nm]>
330

$$$$
>  <molecule>
N#Cc1c(-c2ccccc2)cc(-c2ccccc2)[nH]c1=S

>  <absorption maximum [nm]>
451

$$$$
>  <molecule>
CCCCCCC(CCCCCC)n1c(=O)c2c3ccc4cccc5c6cccc7ccc(c2c1=O)c(c76)c3c45

>  <absorption maximum [nm]>
335

$$$$
>  <molecule>
CN(C)c1cc(C#N)c(N(C)C)c(C#N)c1

>  <absorption maximum [nm]>
390.62

$$$$
>  <molecule>
O=c1ccc2cc3ccoc3cc2o1

>  <absorption maximum [nm]>
294

$$$$
>  <molecule>
CN(C)c1ccc(-c2nc3cnccc3[nH]2)cc1

>  <absorption maximum [nm]>
328

$$$$
>  <molecule>
CN(C)c1ccc(C(=O)Nc2ccc(F)cc2)cc1

>  <absorption maximum [nm]>
307

$$$$
>  <molecule>
c1ccc2c(-n3c4ccccc4c4ccccc43)cccc2c1

>  <absorption maximum [nm]>
322

$$$$

---

- protocol-details: solvent given as SMILES
- cond: in ClCCl
Rule: absorption maximum of 400 nm or more gives Y; anything lower gives N.

>  <compound>
CCCCC(CC)COc1cc(OCC(CC)CCCC)c2c#cc3ccc4c(c3)c3cc(c#cc5cc(c#cc6ccc7c(c6)c6cc(c#cc1c2)ccc6n7CC(CC)CCCC)c(C(CCCC)OCCC)cc5C(CCCC)OCCC)ccc3n4CC(CC)CCCC (configuration not stated)

>  <label-class>
N

$$$$
>  <compound>
C[Si]1(C)c2cc(-c3ccc(N(c4ccccc4)c4ccccc4)cc3)ccc2C=Cc2ccc(-c3ccc(N(c4ccccc4)c4ccccc4)cc3)cc21

>  <label-class>
Y

$$$$
>  <compound>
CC(C)(C)c1ccc(-c2nc3c4ccccc4c4ccccc4c3n2-c2ccc(C(C)(C)C)cc2)cc1

>  <label-class>
N

$$$$
>  <compound>
O=c1c2cccc3cccc(c32)c2nc3c(F)c(F)c(F)c(F)c3n12

>  <label-class>
N

$$$$
>  <compound>
Cc1csc2[n+]1[B-](F)(F)n1c(c3cccc4cccc1c43)=N2

>  <label-class>
Y

$$$$
>  <compound>
COc1ccc2cc(C#N)c(=N)oc2c1

>  <label-class>
N

$$$$
>  <compound>
COc1ccc(/C=C/c2cc(/C=C/c3ccc(OC)cc3)ncn2)cc1

>  <label-class>
N

$$$$
>  <compound>
CC1=C(c2ccc(N(C)C)cc2)C(C)=[N+]2C1=C(c1c(-c3ccccn3)nc3ccccn13)c1c(C)c(-c3ccc(N(C)C)cc3)c(C)n1[B-]2(F)F

>  <label-class>
Y

$$$$
>  <compound>
CC1=NN(c2cccc3ccccc23)[B-](F)(F)[n+]2ccccc21

>  <label-class>
Y

$$$$
>  <compound>
COc1ccc(-c2cccc3ncc(-c4ccccc4)n23)cc1

>  <label-class>
N

$$$$
>  <compound>
CN(C)c1ccc(C#Cc2ccc(-c3cc(N(C)C)c4ccccc4c3)cc2)cc1

>  <label-class>
N

$$$$
>  <compound>
CCCN1c2ccccc2Sc2cc(C3=C4C=CC=[N+]4[B-](F)(F)n4cccc43)ccc21

>  <label-class>
Y

$$$$
>  <compound>
c1ccc(-[n+]2c3ccc4cccc5c6cccc7c8cccc9ccc2c(c98)c(c67)c3c45)cc1

>  <label-class>
Y

$$$$
>  <compound>
COC(=O)c1cccc2c1C#Cc1c(NC(C)=O)cccc1OCCCO2

>  <label-class>
N

$$$$
>  <compound>
COc1ccc(/C=C/c2nc(-c3ccc([N+](=O)[O-])cc3)[nH]c2/C=C/c2ccc(OC)cc2)cc1

>  <label-class>
Y

$$$$
>  <compound>
O=C1Nc2ccccc2/C1=C/C(=O)c1ccc(O)cc1

>  <label-class>
N

$$$$

The reported numbers originate from the Deep4Chem optical property database.
